- studySystem: PI3K δ (Homo sapiens)
- Construct: purchased Upstate / Millipore Corporation
- Sequence (O00329 whole entry, one chain of several): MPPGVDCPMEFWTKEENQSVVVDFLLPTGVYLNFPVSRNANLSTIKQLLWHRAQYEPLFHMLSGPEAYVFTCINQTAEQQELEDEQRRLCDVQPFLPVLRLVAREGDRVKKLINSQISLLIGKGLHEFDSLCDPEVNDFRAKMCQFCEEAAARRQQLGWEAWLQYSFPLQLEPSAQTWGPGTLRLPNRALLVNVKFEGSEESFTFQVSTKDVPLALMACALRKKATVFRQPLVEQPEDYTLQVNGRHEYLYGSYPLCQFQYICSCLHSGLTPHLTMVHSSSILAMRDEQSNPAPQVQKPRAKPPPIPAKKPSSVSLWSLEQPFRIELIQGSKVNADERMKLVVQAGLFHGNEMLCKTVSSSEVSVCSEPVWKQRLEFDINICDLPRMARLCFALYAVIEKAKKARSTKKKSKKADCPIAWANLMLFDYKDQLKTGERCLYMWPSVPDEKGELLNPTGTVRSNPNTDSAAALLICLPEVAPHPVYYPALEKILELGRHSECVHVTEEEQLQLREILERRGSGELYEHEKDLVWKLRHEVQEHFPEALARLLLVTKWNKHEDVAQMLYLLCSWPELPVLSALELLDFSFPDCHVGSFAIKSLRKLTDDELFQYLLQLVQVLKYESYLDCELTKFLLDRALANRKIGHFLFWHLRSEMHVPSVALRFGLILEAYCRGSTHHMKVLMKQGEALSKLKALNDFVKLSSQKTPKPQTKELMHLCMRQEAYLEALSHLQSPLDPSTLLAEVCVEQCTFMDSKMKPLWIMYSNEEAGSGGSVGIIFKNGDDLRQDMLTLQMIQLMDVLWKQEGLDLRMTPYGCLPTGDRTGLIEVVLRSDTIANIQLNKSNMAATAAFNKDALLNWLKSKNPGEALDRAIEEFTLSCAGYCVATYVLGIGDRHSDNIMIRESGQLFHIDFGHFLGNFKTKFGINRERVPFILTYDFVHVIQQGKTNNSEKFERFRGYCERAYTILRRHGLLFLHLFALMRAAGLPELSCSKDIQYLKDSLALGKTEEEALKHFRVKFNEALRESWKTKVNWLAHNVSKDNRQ
- runDescription: PI 3-Kinase (human) HTRF assay, PI3K δ
- Type: biochemical
- measurementConditions: read-out: PI3K δ IC50
Catalogue of IC50 values

Solved entries (count: 7):
compound: Nc1nc2cc(-c3ccc4ncc(-c5ccccc5)nc4c3)ccc2o1 [Compound 180]
IC50: > 10 µM
//
compound: CC(=O)N1CCC(Nc2ncnc3ccc(-c4ccc5oc(N)nc5c4)nc23)CC1 [Compound 211]
IC50: < 0.1 µM
//
compound: Nc1nc2cc(-c3ccc4ncc(C(=O)N5CC6CCC(C5)O6)n4c3)ccc2o1 [Compound 504]
IC50: > 10 µM
//
compound: Nc1nc2cc(-c3ccc4ncc(C(=O)N5CC[C@@H](n6cccn6)C5)n4c3)ccc2o1 [Compound 477]
IC50: < 10 µM
//
compound: C[C@H]1CN(c2cnc3cccc(-c4ccc5nc(N)oc5c4)c3n2)CCN1 [Compound 343]
IC50: > 10 µM
//
compound: Nc1nc2cc(-c3ccc4ncc(C(=O)N5CCOCC5)cc4c3)ccc2o1 [Compound 97]
IC50: > 10 µM
//
compound: CN1CCN(c2nnc3ccc(-c4ccc5nc(N)oc5c4)cn23)CC1 [Compound 542]
IC50: > 10 µM

Next:
Hello, please tell me recorded IC50 for this one: Nc1nc2c(-c3ccc4ncc(C(=O)N5CCOCC5)n4c3)cccc2o1 [Compound 496] > 10 µM

----------
- studySystem: PI3K α (p110α/p85α) (Homo sapiens, UniProt P42336)
- Construct: purchased Upstate / Millipore Corporation
- Sequence (P42336 whole entry): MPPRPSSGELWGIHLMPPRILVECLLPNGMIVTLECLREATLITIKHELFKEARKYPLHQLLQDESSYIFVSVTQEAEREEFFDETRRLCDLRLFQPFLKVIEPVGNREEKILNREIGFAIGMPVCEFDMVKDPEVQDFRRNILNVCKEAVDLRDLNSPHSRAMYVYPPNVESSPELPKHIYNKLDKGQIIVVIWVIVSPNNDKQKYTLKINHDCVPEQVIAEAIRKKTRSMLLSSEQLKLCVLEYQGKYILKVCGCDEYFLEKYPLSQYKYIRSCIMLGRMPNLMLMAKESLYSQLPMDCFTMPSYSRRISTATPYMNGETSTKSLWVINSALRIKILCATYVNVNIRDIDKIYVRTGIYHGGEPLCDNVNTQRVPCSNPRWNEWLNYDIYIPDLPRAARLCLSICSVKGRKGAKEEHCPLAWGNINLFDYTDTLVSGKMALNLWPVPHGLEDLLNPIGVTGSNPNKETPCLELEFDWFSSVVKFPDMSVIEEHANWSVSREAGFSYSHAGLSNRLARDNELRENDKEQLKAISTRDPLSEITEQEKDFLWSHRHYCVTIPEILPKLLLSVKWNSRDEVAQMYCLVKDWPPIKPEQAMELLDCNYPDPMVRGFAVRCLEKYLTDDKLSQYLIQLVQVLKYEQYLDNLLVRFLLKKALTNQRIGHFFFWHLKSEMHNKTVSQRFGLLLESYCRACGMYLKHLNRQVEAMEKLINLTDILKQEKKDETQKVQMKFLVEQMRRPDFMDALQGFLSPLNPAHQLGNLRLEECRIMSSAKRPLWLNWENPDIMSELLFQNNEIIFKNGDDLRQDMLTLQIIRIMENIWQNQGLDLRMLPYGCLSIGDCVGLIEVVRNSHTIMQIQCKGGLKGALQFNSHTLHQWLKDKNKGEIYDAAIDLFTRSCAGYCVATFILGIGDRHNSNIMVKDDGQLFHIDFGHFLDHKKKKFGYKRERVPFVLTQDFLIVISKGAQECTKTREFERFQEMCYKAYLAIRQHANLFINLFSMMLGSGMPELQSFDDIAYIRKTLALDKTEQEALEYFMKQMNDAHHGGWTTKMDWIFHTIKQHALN
- Sequence (P27986 whole entry partner): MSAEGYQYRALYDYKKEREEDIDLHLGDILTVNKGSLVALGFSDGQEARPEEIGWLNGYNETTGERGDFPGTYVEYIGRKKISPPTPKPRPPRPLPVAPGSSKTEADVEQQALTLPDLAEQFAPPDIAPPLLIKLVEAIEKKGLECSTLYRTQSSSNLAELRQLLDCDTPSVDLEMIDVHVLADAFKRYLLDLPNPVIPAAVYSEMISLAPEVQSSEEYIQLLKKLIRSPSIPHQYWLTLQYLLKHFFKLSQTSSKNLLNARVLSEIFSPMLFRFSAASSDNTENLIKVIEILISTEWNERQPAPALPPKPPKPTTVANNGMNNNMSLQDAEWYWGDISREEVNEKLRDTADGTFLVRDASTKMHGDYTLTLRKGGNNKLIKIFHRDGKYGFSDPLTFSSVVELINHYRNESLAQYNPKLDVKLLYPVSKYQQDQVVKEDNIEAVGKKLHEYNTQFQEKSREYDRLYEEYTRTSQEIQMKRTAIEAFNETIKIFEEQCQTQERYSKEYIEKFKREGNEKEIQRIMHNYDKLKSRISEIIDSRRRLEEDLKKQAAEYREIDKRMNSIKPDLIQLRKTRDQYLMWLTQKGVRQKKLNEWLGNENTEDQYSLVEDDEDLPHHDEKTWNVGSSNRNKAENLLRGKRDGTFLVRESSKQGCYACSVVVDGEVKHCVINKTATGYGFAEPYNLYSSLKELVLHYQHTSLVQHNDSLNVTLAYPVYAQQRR
- runDescription: PI 3-Kinase (human) HTRF assay, PI3K α
- Type: biochemical
- measurementConditions: read-out: PI3K α IC50
Catalogue of IC50 values

compound: Nc1nc2cc(-c3ccc4ncc(N5CCC(O)C5)nc4c3)ccc2o1 (centres unmarked) [Compound 209]
IC50: < 100 nM

compound: CC1(C)COCCN1C(=O)c1cnc2ccc(-c3ccc4oc(N)nc4c3)cn12 [Compound 514]
IC50: < 1000 nM

compound: CN1CCN(S(=O)(=O)c2cnc3ccc(-c4ccc5oc(N)nc5c4)cn23)CC1 [Compound 110]
IC50: > 10000 nM

compound: CN(C)[C@H]1CCN(c2cnc3ccc(-c4ccc5oc(N)nc5c4)cc3n2)C1 [Compound 382]
IC50: < 100 nM

compound: Cc1cc2ncc(C(=O)N3CCOCC3)n2cc1-c1ccc2oc(N)nc2c1 [Compound 507]
IC50: > 10000 nM

compound: Nc1nc2cc(-c3ccc4ncc(C(=O)N5CCOCC5)n4n3)ccc2o1 [Compound 105]
IC50: < 1000 nM

compound: Nc1nc2cc(-c3ccc4ncc(C(=O)N5CCNCC5)n4c3)ccc2o1 [Compound 111]
IC50: < 100 nM

compound: Nc1noc2ccc(-c3ccc4nccc(-c5ccncc5)c4c3)cc12 [Compound 18]
IC50: < 10000 nM

Hello, please tell me recorded IC50 for this one: CN1CCN(c2cnc3ccc(-c4ccc5nc(N)sc5c4)cc3n2)CC1 [Compound 115] < 100 nM

Hello, please tell me recorded IC50 for this one: Nc1nc2cc(-c3ccc4ncc(C(=O)N5CC[C@H](N6CCOCC6)C5)n4c3)ccc2o1 [Compound 465] < 100 nM

Hello, please tell me recorded IC50 for this one: Nc1nc2cc(-c3ccc4ncc(C(=O)N5CCOCC5)n4c3)c(F)cc2o1 [Compound 372] < 1000 nM

Hello, please tell me recorded IC50 for this one: CN(C)[C@@H]1CCN(c2cnc3ccc(-c4ccc5oc(N)nc5c4)cc3n2)C1 [Compound 378] < 100 nM

Hello, please tell me recorded IC50 for this one: Nc1nc2cc(-c3ccc4ncc(C(=O)N5CCC(F)(F)C5)n4c3)ccc2o1 [Compound 471] < 100 nM

Hello, please tell me recorded IC50 for this one: Cn1c(=O)n(-c2ccc(C(C)(C)C#N)cc2)c2c3cc(-c4ccc5oc(N)nc5c4)ccc3ncc21 [Compound 7] < 100 nM

Hello, please tell me recorded IC50 for this one: Cc1cc(-c2ccc3nc(N)oc3c2)cn2c(CN3CCN(C)CC3)nnc12 [Compound 549] > 10000 nM

Hello, please tell me recorded IC50 for this one: CN1CCN(c2ccnc3ccc(-c4ccc5oc(N)nc5c4)cc23)CC1 [Compound 21] < 1000 nM

Hello, please tell me recorded IC50 for this one: C[C@@H]1COCCN1C(=O)c1cnc2ccc(-c3ccc4oc(N)nc4c3)cn12 [Compound 495] < 100 nM
